# maps each entry to its average neutralization titer
- Tested system: hemagglutinin (HA) of influenza virus H3N2 A/Brisbane/10/07 (influenza A virus)
- Assay summary: cell-based or functional assay
Observable: average neutralization titer (nM)

binder="MD2311 (bispecific antibody) EVQLVESGGGLVQAGDSLRLSCAASGPTFGMSAMGWFRQAPGKEREFVAAISGLGNPNYSDDVKGRFTISRENGRNTVYLQMNSLKPEDTAVYYCAQRKVYHVQGGDRPQAYDYWGQGTQVTVSSGGGGSGGGGSEVQLVESGGGLVQPGGSLRLSCAATGFTLENKAIGWFRQTPGSEREGVLCISKSGSWTYYTDSMRGRFTISRDNAENTVYLQMDSLKPEDTAVYYCATTTAGGGLCWDGTTFSRLASSWGQGTQVTVSSGGGGSGGGGSEVQLVESGGGLVQAGDSLRISCAASGRTLSIYSMGWFRQAPGKEREFVATIGWNSGRTFYPDSLKGRFTISRDNARNTLYLQMNNLRPEDTAVYYCAAAKGPLRLSSQADYWGQGTQVTVSS" observable="average neutralization titer" endpoint_unit=nM experimental_result=21.6
binder="MD2312 (bispecific antibody) EVQLVESGGGLVQAGDSLRLSCAASGPTFGMSAMGWFRQAPGKEREFVAAISGLGNPNYSDDVKGRFTISRENGRNTVYLQMNSLKPEDTAVYYCAQRKVYHVQGGDRPQAYDYWGQGTQVTVSSGGGGSGGGGSEVQLVESGGGLVQAGDSLRISCAASGRTLSIYSMGWFRQAPGKEREFVATIGWNSGRTFYPDSLKGRFTISRDNARNTLYLQMNNLRPEDTAVYYCAAAKGPLRLSSQADYWGQGTQVTVSSGGGGSGGGGSEVQLVESGGGLVQPGGSLRLSCAATGFTLENKAIGWFRQTPGSEREGVLCISKSGSWTYYTDSMRGRFTISRDNAENTVYLQMDSLKPEDTAVYYCATTTAGGGLCWDGTTFSRLASSWGQGTQVTVSS" observable="average neutralization titer" endpoint_unit=nM experimental_result=18.1
binder="MD2303 (bispecific antibody) EVQLVESGGGLVQPGGSLRLSCAVSISIFDIYAMDWYRQAPGKQRDLVATSFRDGSTNYADSVKGRFTISRDNAKNTLYLQMNSLKPEDTAVYLCHVSLYRDPLGVAGGMGVYWGKGALVTVSSGGGGSGGGGSEVQLVESGGGLVQAGGSLKLSCAASGRTYAMGWFRQAPGKEREFVAHINALGTRTYYSDSVKGRFTISRDNAKNTEYLEMNNLKPEDTAVYYCTAQGQWRAAPVAVAAEYEFWGQGTQVTVSSGGGGSGGGGSEVQLVESGGGLVQPGGSLRLSCAATGFTLENKAIGWFRQTPGSEREGVLCISKSGSWTYYTDSMRGRFTISRDNAENTVYLQMDSLKPEDTAVYYCATTTAGGGLCWDGTTFSRLASSWGQGTQVTVSS" observable="average neutralization titer" endpoint_unit=nM experimental_result=12.8
binder="MD2307 (bispecific antibody) EVQLVESGGGLVQPGGSLRLSCAATGFTLENKAIGWFRQTPGSEREGVLCISKSGSWTYYTDSMRGRFTISRDNAENTVYLQMDSLKPEDTAVYYCATTTAGGGLCWDGTTFSRLASSWGQGTQVTVSSGGGGSGGGGSEVQLVESGGGLVQAGDSLRISCAASGRTLSIYSMGWFRQAPGKEREFVATIGWNSGRTFYPDSLKGRFTISRDNARNTLYLQMNNLRPEDTAVYYCAAAKGPLRLSSQADYWGQGTQVTVSSGGGGSGGGGSEVQLVESGGGLVQAGDSLRLSCAASGPTFGMSAMGWFRQAPGKEREFVAAISGLGNPNYSDDVKGRFTISRENGRNTVYLQMNSLKPEDTAVYYCAQRKVYHVQGGDRPQAYDYWGQGTQVTVSS" observable="average neutralization titer" endpoint_unit=nM experimental_result=30.4
